Target: furin, P09958;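 further: purified furin at 1:10 enzyme:substrate in 50 mM HEPES pH 7.5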
Sequence (P09958 whole entry): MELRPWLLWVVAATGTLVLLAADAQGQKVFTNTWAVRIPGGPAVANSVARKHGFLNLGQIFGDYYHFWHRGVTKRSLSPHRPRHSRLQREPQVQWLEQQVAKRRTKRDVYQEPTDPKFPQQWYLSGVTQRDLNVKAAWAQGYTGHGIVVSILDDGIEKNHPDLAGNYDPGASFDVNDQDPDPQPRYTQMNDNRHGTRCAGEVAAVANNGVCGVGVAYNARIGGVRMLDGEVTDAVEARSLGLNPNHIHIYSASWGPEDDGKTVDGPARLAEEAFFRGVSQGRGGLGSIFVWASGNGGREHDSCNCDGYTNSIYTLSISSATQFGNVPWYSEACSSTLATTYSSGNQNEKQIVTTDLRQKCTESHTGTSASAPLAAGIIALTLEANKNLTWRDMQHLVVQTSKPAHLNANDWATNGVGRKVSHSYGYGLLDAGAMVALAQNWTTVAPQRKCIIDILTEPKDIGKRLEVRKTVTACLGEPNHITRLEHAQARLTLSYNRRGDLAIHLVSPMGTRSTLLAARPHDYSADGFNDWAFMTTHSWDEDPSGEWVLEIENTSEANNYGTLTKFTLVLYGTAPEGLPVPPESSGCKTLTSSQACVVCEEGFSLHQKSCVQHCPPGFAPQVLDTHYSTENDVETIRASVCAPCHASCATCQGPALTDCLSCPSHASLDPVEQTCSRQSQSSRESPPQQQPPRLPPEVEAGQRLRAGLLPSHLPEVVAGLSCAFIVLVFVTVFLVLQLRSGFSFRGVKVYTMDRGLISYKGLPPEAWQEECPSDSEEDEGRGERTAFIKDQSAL
Assay: furin cleavage Z-score vs untreated control; higher = more cleavage, active = 3.5 or more, inactive = 1 or less, 8 variable residues between constant flanks
Details: 30 min
The list shows a part of the results. No count for the full screen is at hand.
Hello, when you answer, please use one of the following outcomes: yes (1) = active, no (0) = inactive

Problem: Check the results log: what was the call for CASVASSSASAGNASASA [HC1259] ?
Result: no (0)

Problem: Now the sequence CANRGIGKRSAGNASASA [FS-65]
Result: yes (1)

Problem: Now this one: CADQERKARYAGNASASA [FS-758]
Result: no (0)

Problem: Could you do the same for CASKSRVSRLAGNASASA [FS-1488] , please?
Result: yes (1)

Problem: Try this sequence next: CAPPDSDAESAGNASASA [HC1349]
Result: no (0)

Problem: Also, CATTPPSGSWAGNASASA [HC60] please.
Result: no (0)

Problem: // repeat for CATTPCSGSDAGNASASA [HC1931] and report
Result: no (0)

Problem: Same for CANAYTTGPCAGNASASA [HC1192]
Result: no (0)

Problem: Next record, please: CAYPNRPDRPAGNASASA [FS-110]
Result: no (0)

Problem: Continue with CAVQLINTNGAGNASASA [HC366]
Result: no (0)

Problem: Next entry: CASGGRTKRYAGNASASA [FS-191]
Result: yes (1)

Problem: Check CAYCLRKRRMAGNASASA [FS-1664] too.
Result: yes (1)

Problem: Please do the same for CALKRRDRRMAGNASASA [FS-1227] as well.
Result: yes (1)

Problem: // same read-out, input: CARKRREAESAGNASASA [FS-2972]
Result: yes (1)

Problem: Now try CARKRRIVSGAGNASASA [FS-2348] .
Result: no (0)

Problem: What do you have for CAEAALENLVAGNASASA [HC533] ?
Result: no (0)

Cited source for all entries: the supplement of paper PMC3545927
